Data origin, for the record: PubChem BioAssay (NCI)

# Tested on: HOP-62 NSCLC
# protocol details: NCI tumour cell line growth inhibition, 48 h
measured metric: TGI

Example compounds with recorded TGI:
Cc1cc(NS(=O)(=O)c2ccc(NC(=O)c3ccc(Cl)c4c(Nc5ccc(S(=O)(=O)Nc6cc(C)on6)cc5)c5ccccc5nc34)cc2)no1 = 55 µM
O=C(Cn1c2ccc(Br)cc2c2nc3ccccc3nc21)NCc1ccccc1 = > 100 µM
Cc1nc(-n2nc(-c3ccccc3)cc2-c2ccccc2)sc1C(=O)CC(=O)C(=O)Nc1ccc(Cl)c(Cl)c1 = > 100 µM
COc1ccc(N2C(=O)C3ON(Cc4ccc(CC(N)=O)cc4)C(c4c5ccccc5c(C)c5ccccc45)C3C2=O)cc1 (configuration not stated) = > 100 µM
O=[N+]([O-])c1ccc(Sc2cccc[n+]2[O-])c2nonc12 = > 56.4 µM

Prompt: Look up TGI: Cc1[nH]n(-c2nc(-c3ccccc3)cc(=O)[nH]2)c(=O)c1CCO
Completion: > 100 µM

Prompt: Look up TGI: O=C(NC(=S)Nc1ccc(Br)cc1)c1ccc2c(c1)Sc1ccccc1O2
Completion: > 100 µM

###

Consider the following compounds and their measured TGI readings.
# Test system: CAKI-1 renal
# protocol details: NCI tumour cell line growth inhibition, 48 h

Example compounds with recorded TGI:
Nc1nc(N)nc(CCCCc2nc(N)nc(N)n2)n1 = > 100 µM
Cc1[nH]n(-c2nc(-c3ccccc3)cc(=O)[nH]2)c(=O)c1CCO = > 100 µM
O=C(n1c2ccccc2c2n[nH]c(=S)nc21)C(F)(F)F = > 100 µM
CC(C)CC1c2[nH]c3ccccc3c2C[C@H]2C(=O)NC(Cc3c[nH]c4ccccc34)C(=O)N12 (stereo not given in full) = 66.1 µM
COc1cc2ncnc(NS(=O)(=O)c3cc4ccccc4s3)c2cc1OC = > 100 µM
CC(C)(C)C1=CC(=N/N=c2\scc(-c3ccccc3)n2Cc2ccccc2)C=C(C(C)(C)C)C1=O = > 100 µM
CCC1(O)C(=O)OCc2c1cc1n(c2=O)Cc2cc3cc4c(cc3nc2-1)OCO4 (stereo not given) = 0.046 µM
CN(C)CCCNc1ccnc2c([N+](=O)[O-])cccc12 = > 100 µM
COc1c(C(=O)/C(=N/Nc2ccc(C(=O)O)cc2)C(C)=O)c(O)cc2occc12 = > 100 µM

In the following, a different compound is considered.
Prompt: Look up TGI: Cc1cccc2c(=O)c3cccc([C@H](C)C(=O)O)c3oc12
Completion: > 100 µM

###

Consider the following compounds and their measured TGI readings.
# Tested on: HOP-62 NSCLC
# protocol details: NCI tumour cell line growth inhibition, 48 h

Example compounds with recorded TGI:
COc1ccc(-c2cc(-c3ccc(C)cc3)n(C3OC(COC(C)=O)C(OC(C)=O)C(OC(C)=O)C3OC(C)=O)c(=S)c2C#N)cc1 (stereo unspecified) = > 100 µM
CCCC(=O)Oc1ccc(/C(=C(\C)c2ccc(Cl)cc2)c2ccc(OCCN(CC)CC)cc2)cc1 = 4.68 µM
COc1ccc(SCc2cc(OC)ccc2OC)cc1 = > 100 µM
CC(=O)c1cc2c(Br)cccc2oc1=O = > 100 µM
CC(C)(C)OC(=O)N(CCCCN(CCCn1c2c(c3ccccc3c1=O)C(=O)c1ccccc1-2)C(=O)OC(C)(C)C)CCCn1c2c(c3ccccc3c1=O)C(=O)c1ccccc1-2 = 73.8 µM

In the following, a different compound is considered.
Prompt: Look up TGI: COc1ccc(Cn2cc3c(c2-c2ccccc2)CCc2cnoc2-3)cc1
Completion: > 48.5 µM

###

# Tested on: HOP-92 NSCLC
# protocol details: NCI tumour cell line growth inhibition, 48 h; in the data active = GI50 below about 0.43 µM; inactive = the rest
Mark one answer only. Choices: 1 for active, 0 for inactive

The examples below pair each entry with its known result.
CCN1C(=O)N(CC)C2C1NN=c1s/c(=C3\C(=O)Nc4ccccc43)c(=O)n12 (stereo not given) = 0
COc1ccc(-c2cn(C)c3c2-n2cccc2C3=O)cc1O = 0
C[C@H]1C[C@@H](n2c(Nc3ccc(OC(F)(F)F)cc3)nc3cc(CCC(=O)O)ccc32)CC(C)(C)C1 = 0
CC(C)(C)OC(=O)N(CCCCN(CCCn1c2c(c3ccccc3c1=O)C(=O)c1ccccc1-2)C(=O)OC(C)(C)C)CCCn1c2c(c3ccccc3c1=O)C(=O)c1ccccc1-2 = 0

Turning now to a further record.
Prompt: Tell me the recorded outcome of this test for CCN(Cc1ccc(Cl)c(Cl)c1)c1ccc2nc(N)nc(N)c2c1C .
Completion: 1

###

# Tested on: T-47D breast
# protocol details: NCI tumour cell line growth inhibition, 48 h
Consider the following molecules and their measured GI50 readings.

Nc1c(C(=O)c2cccc(-c3cccnc3)c2)cnn1-c1ccc(F)cc1 = > 25 µM

Prompt: Look up GI50: CN(C)Cc1ccc(NC(=O)c2cncc(C#Cc3cnc(N)c4ncccc34)c2)cc1C(F)(F)F
Completion: 15.8 µM

Prompt: Look up GI50: COc1ccc(-c2cn(C)c3c2-n2cccc2C3=O)cc1O
Completion: 4.78 µM

Prompt: Look up GI50: CN1CCN(C2=C(Cl)C(=O)c3ccccc3C2=O)CC1
Completion: 0.789 µM

Prompt: Look up GI50: C[C@H]1C[C@@H](n2c(Nc3ccc(OC(F)(F)F)cc3)nc3cc(CCC(=O)O)ccc32)CC(C)(C)C1
Completion: 14.3 µM

Prompt: Look up GI50: Cc1cccc(CNc2c3ccccc3nc3ccccc23)c1
Completion: 1.83 µM

###

Consider the following compounds and their measured TGI readings.
# Test system: SNB-19 CNS
# protocol details: NCI tumour cell line growth inhibition, 48 h

Example compounds with recorded TGI:
CC(C)CC1c2[nH]c3ccccc3c2C[C@H]2C(=O)NC(Cc3c[nH]c4ccccc34)C(=O)N12 (stereo partly specified) = 43.6 µM
Nc1nc(N)nc(CCCCc2nc(N)nc(N)n2)n1 = > 100 µM
C(=N\NC1=NCCCCN1)/c1ccc2ccccc2c1 = > 100 µM
Nc1cc(OCC2CCCCC2)nc(N)n1 = > 100 µM
CC1OC(NCCNCCNC2OC(C)C(O)C(O)C2O)C(O)C(O)C1O (stereo unspecified) = > 100 µM

Prompt: Look up TGI: CC(C)(C)OC(=O)N(CCCCN(CCCn1c2c(c3ccccc3c1=O)C(=O)c1ccccc1-2)C(=O)OC(C)(C)C)CCCn1c2c(c3ccccc3c1=O)C(=O)c1ccccc1-2
Completion: > 100 µM

Prompt: Look up TGI: COc1c(C(=O)/C(=N/Nc2ccc(C(=O)O)cc2)C(C)=O)c(O)cc2occc12
Completion: > 100 µM

###

# System: SNB-75 CNS
# protocol details: NCI tumour cell line growth inhibition, 48 h
measured metric: GI50

Example compounds with recorded GI50:
C[C@H]1C[C@@H](n2c(Nc3ccc(OC(F)(F)F)cc3)nc3cc(CCC(=O)O)ccc32)CC(C)(C)C1 = 13.8 µM
O=C(CSSCC(=O)c1ccc(Cl)cc1)c1ccc(Cl)cc1 = 6.62 µM
NC(CSC(c1ccccc1)(c1ccccc1)c1ccccc1)C(=O)O (stereo unspecified) = 2.34 µM
COc1ccc(-c2nc(NC(=O)CS(=O)(=O)c3ccc(F)cc3)sc2C)cc1 = 9.45 µM
ClCCCN1CCN(CCCl)CC1 = 43.2 µM

In the following, a different compound is considered.
Prompt: Look up GI50: COc1ccc(-n2nc(C)c3c(Nc4ccc(NC(=O)Nc5cccc(C(F)(F)F)c5)cc4)ncnc32)cc1
Completion: 0.87 µM

###

# Tested on: RPMI-8226 leukemia
# protocol details: NCI tumour cell line growth inhibition, 48 h
measured metric: TGI (µM)
Use µM as the unit, but write only the number.

Example compounds with recorded TGI:
CCN(CC)Cc1cc(N=Nc2c(O)ccc3c(N=Nc4ccc(O)c(CN(CC)CC)c4)c(O)ccc23)ccc1O = 19
CC(C)CC1c2[nH]c3ccccc3c2C[C@H]2C(=O)NC(Cc3c[nH]c4ccccc34)C(=O)N12 (stereo partly drawn) = 48.7
CC1[C@@]2(O[C@@H]3C=C4C5CCC6Cc7nc8c(nc7C[C@@]6(C)C5C[C@H](O)[C@@]4(C)[C@]13O)CC1CCc3c(cc4c5c3C(O)C[C@H]5[C@@H](C)C3(O4)OC(C)(C)CC3O)[C@]1(C)C8)O[C@@](C)(CO)C[C@@H]2O (stereo partly drawn) = 0.21
CCCCC[C@@H]1CCCC2NC(CCCCCO[Si](c3ccccc3)(c3ccccc3)C(C)(C)C)CCC21 (stereo partly drawn) = 22.2

In the following, a different compound is considered.
Prompt: Look up TGI: Nc1cc(C2CCCc3c2[nH]c2ccccc32)ccc1O (stereo not drawn)
Completion: 54.9

###

Consider the following molecules and their measured TGI readings.
# Test system: A549 NSCLC
# protocol details: NCI tumour cell line growth inhibition, 48 h

Example molecules with recorded TGI:
CCN1C(=O)N(CC)C2C1NN=c1s/c(=C3\C(=O)Nc4ccccc43)c(=O)n12 (stereo not given) = > 100 µM
COC(=O)c1ccc(OCCn2nnc(C(=O)NN)c2C(=O)NN)cc1 = > 100 µM
S=C1SCC2CCCN12 (stereo not given) = > 100 µM
O=C(c1ccc(Cl)cc1Cl)N1CCN(C(=O)c2ccc(Cl)cc2Cl)C1=S = 43.2 µM
COc1ccc(SCc2cc(OC)ccc2OC)cc1 = > 100 µM
O=[N+]([O-])c1ccc(C[P+]2(c3ccccc3)CCCCC2)cc1 (tested in a mixture with another compound) = > 100 µM
C[C@H]1C[C@@H](n2c(Nc3ccc(OC(F)(F)F)cc3)nc3cc(CCC(=O)O)ccc32)CC(C)(C)C1 = 30.2 µM
CCOC(=O)NC(Nc1ccc(F)cc1F)(C(F)(F)F)C(F)(F)F = > 100 µM
COc1ccc2c(c1)/C(=C\c1c(Cl)nc3n1CCS3)C(=O)N2 = > 100 µM

In the following, a different molecule is considered.
Prompt: Look up TGI: CCC1(CC)C(=O)NC(=O)NC1=S
Completion: > 100 µM
